Data provenance: ChEMBL document CHEMBL6114946

# TEST PROTOCOL: Ratio of drug level in rat brain to plasma at 1 mg/kg, iv measured after 60 mins
# Format: ADME, organism-based
# COND: read-out: BPR
ENDPOINT: Kp at 1 h
Lab note: write the figure by itself, no unit.

MOLECULE	Kp at 1 h
CS(=N)(=O)c1cccc(NC(=O)c2cc(C(F)(F)F)cnc2Oc2ccc(F)cc2Cl)c1 (configuration not stated)	0.89

Continue with the molecule presented below.
Please report the measured Kp at 1 h for Cc1cc(F)ccc1Oc1ncc(C(F)(F)F)cc1C(=O)Nc1cccc([S@](C)(=N)=O)c1 0.6

---

Collected inhibition at 30 µM values appear next to each entry.
# TESTED TARGET: Nav1.2 (sodium channel protein type 2 subunit alpha) (Homo sapiens)
# Sequence (Q99250 whole entry): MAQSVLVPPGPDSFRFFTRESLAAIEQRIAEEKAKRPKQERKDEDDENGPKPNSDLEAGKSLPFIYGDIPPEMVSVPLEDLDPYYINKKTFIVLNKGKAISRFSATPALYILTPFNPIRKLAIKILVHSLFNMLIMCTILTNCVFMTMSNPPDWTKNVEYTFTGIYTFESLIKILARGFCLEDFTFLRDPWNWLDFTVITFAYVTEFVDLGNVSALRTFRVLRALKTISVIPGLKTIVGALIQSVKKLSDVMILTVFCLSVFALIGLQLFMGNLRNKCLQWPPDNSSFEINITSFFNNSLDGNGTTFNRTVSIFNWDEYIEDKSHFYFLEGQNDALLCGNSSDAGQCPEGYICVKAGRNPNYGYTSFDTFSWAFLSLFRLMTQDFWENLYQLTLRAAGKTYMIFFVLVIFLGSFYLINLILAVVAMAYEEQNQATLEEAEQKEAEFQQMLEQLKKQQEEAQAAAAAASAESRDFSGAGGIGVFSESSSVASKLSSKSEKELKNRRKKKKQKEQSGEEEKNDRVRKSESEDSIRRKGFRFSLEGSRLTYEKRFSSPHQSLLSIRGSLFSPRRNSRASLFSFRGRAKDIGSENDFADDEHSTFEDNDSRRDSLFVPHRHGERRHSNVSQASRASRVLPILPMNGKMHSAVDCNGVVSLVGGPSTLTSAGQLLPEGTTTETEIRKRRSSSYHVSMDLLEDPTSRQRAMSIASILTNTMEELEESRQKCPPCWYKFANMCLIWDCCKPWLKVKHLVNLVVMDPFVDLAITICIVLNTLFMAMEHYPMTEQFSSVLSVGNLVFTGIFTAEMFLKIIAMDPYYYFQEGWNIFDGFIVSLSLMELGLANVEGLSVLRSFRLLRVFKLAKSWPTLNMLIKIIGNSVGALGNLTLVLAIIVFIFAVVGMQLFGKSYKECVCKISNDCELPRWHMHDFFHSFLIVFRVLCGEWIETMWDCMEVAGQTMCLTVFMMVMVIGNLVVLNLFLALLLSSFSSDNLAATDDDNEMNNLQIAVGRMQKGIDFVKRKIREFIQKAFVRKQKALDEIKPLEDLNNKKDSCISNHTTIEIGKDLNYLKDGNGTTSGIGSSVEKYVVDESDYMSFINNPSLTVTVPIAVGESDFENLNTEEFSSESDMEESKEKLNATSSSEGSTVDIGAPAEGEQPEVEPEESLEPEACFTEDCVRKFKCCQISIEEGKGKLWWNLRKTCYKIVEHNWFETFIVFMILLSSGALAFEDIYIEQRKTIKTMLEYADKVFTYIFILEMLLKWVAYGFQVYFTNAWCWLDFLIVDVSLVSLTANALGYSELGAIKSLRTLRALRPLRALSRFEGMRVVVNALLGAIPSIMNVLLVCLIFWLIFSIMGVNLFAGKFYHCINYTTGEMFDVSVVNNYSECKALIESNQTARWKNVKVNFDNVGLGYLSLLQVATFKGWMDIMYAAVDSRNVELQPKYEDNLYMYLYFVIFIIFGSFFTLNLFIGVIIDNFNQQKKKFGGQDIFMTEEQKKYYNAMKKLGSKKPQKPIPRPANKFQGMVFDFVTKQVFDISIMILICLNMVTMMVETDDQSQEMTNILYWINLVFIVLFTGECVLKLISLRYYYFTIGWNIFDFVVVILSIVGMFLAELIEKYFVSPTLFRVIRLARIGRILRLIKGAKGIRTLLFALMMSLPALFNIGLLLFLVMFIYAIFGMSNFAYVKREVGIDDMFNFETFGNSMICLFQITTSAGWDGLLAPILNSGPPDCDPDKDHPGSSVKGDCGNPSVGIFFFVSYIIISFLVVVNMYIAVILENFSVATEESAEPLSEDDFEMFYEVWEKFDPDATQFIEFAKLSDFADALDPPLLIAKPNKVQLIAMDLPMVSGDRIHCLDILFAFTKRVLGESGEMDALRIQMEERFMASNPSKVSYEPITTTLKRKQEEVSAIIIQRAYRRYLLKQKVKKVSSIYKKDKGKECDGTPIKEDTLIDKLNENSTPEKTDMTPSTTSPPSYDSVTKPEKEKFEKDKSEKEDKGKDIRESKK
# TEST PROTOCOL: Inhibition of Nav1.2 (unknown origin) at 30 uM relative to control
# Format: toxicity

COMPOUND	inhibition at 30 µM
CS(=N)(=O)c1cccc(NC(=O)c2cc(C(F)(F)F)cnc2Oc2ccc(F)cc2Cl)c1 (configuration not stated)	< 25%

API: the following record is the query input.
Please report the measured inhibition at 30 µM for Cc1cc(F)ccc1Oc1ncc(C(F)(F)F)cc1C(=O)Nc1cccc([S@](C)(=N)=O)c1 tested on Nav1.2 (sodium channel protein type 2 subunit alpha) (Homo sapiens). < 25%
